Cited source: paper PMC7305236

biological target: ACKR3 (Homo sapiens, UniProt P25106); type: cell-based; design: expressed in transfected cells; conditions: 100 nM, replicate 2
Sequence (P25106 whole entry): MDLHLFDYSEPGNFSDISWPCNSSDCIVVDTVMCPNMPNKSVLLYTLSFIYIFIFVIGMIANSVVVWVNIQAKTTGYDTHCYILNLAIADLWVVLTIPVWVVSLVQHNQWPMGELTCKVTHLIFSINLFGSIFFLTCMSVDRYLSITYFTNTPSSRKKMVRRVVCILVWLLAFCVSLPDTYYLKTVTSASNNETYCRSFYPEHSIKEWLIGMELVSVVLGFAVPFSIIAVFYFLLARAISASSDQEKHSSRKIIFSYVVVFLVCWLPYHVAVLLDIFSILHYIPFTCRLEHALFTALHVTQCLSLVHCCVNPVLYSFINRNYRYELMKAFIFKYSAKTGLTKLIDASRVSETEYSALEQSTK
measuredQuantity: ACKR3 activity, Fig 4a
Simply state the number, no unit and no words.

[in] May I ask what ACKR3 activity, Fig 4a has been recorded for C=CCN1CC[C@]23c4c5ccc(O)c4O[C@H]2C(=O)CC[C@@]3(O)[C@H]1C5 [Naloxone] ?
[out] -16.7812

[in] Field entry: Oc1ccc2c3c1O[C@H]1c4[nH]c5ccccc5c4C[C@@]4(O)[C@@H](C2)N(CC2CC2)CC[C@]314 [Naltrindole]
[out] 7.647

[in] One more compound: C=CCN1CC[C@]23CCCC[C@H]2[C@H]1Cc1ccc(O)cc13 [Levallorphan]
[out] -20.4867

[in] What do we get for Oc1ccc2c3c1O[C@H]1c4[nH]c5c(c4C[C@@]4(O)[C@@H](C2)N(CC2CC2)CC[C@]314)C[C@@]1(O)[C@H]2Cc3ccc(O)c4c3[C@@]1(CCN2CC1CC1)[C@H]5O4 [nor-Binaltrophimine] ?
[out] 7.454

* * *

Biological target: ACKR2 (Homo sapiens, UniProt O00590)
Construct: expressed in transfected cells; host or cells: U87 cells (human glioblastoma)
Sequence (O00590 1-384): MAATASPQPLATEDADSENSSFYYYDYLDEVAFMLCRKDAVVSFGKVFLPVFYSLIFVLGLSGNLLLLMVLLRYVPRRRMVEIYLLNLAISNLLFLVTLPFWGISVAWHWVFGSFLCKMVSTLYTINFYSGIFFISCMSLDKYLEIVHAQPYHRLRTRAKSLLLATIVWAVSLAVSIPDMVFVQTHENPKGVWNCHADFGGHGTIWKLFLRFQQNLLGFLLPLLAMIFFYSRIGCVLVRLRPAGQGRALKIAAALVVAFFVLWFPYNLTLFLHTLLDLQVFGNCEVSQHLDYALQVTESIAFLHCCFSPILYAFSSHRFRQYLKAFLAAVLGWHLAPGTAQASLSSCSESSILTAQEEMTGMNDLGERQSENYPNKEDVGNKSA
Assay: Figure S2a opioid peptide screen on chemokine receptors
Format: cell-based
Design: dose or concentration left out as unconfirmed
Details: replicate 2, read-out: ACKR2 activity, ctrl+ = 100
Kindly state activation for each of the entries shown.
Number in %, nothing else.

[in] // map CC[C@H](C)[C@H](NC(=O)[C@H](CCCNC(=N)N)NC(=O)[C@H](CCCNC(=N)N)NC(=O)[C@H](CC(C)C)NC(=O)[C@H](Cc1ccccc1)NC(=O)CNC(=O)CN)C(=O)N[C@@H](CCCNC(=N)N)C(=O)N1CCC[C@H]1C(=O)N[C@@H](CCCCN)C(=O)N[C@@H](CC(C)C)C(=O)N[C@@H](CCCCN)C(=O)N[C@@H](Cc1c[nH]c2ccccc12)C(=O)N[C@@H](CC(=O)O)C(=O)N[C@@H](CC(N)=O)C(=O)N[C@@H](CCC(N)=O)C(=O)O [Dynorphin 2-17] to recorded activation (system: ACKR2 (Homo sapiens, UniProt O00590))
[out] -37.2

[in] Try CC[C@H](C)[C@H](NC(=O)[C@H](CCCNC(=N)N)NC(=O)[C@H](CCCNC(=N)N)NC(=O)[C@H](CC(C)C)NC(=O)[C@H](Cc1ccccc1)NC(=O)CNC(=O)CNC(=O)[C@@H](N)Cc1ccc(O)cc1)C(=O)N[C@@H](CCCNC(=N)N)C(=O)N1CCC[C@H]1C(=O)N[C@@H](CCCCN)C(=O)N[C@@H](CC(C)C)C(=O)N[C@@H](CCCCN)C(=O)N[C@@H](Cc1c[nH]c2ccccc12)C(=O)N[C@@H](CC(=O)O)C(=O)N[C@@H](CC(N)=O)C(=O)N[C@@H](CCC(N)=O)C(=O)O [Dynorphin A] next.
[out] -26

* * *

Please provide measured activation for the entries that follow.
Molecular target: ACKR4 (Homo sapiens)
Sequence (Q9NPB9 1-350): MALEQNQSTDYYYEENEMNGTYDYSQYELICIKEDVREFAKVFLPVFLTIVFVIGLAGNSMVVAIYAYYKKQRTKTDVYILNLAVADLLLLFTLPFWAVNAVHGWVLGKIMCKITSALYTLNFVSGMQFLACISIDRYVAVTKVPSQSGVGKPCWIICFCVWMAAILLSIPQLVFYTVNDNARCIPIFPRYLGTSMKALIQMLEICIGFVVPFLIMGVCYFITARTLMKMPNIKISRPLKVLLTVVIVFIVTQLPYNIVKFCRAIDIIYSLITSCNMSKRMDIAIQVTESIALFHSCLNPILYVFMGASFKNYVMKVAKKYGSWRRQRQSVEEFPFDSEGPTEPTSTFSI
Test: Figure S2a opioid peptide screen on chemokine receptors
Set-up: dose or concentration left out as unconfirmed
Conditions: read-out: ACKR4 activity, ctrl+ = 100, Figure S2a; replicate 1

[in] // query activation value for entry "CC[C@H](C)[C@H](NC(=O)[C@H](CCCNC(=N)N)NC(=O)[C@H](CCCNC(=N)N)NC(=O)[C@H](CC(C)C)NC(=O)[C@H](Cc1ccccc1)NC(=O)CNC(=O)CN)C(=O)N[C@@H](CCCNC(=N)N)C(=O)N1CCC[C@H]1C(=O)N[C@@H](CCCCN)C(=O)N[C@@H](CC(C)C)C(=O)N[C@@H](CCCCN)C(=O)N[C@@H](Cc1c[nH]c2ccccc12)C(=O)N[C@@H](CC(=O)O)C(=O)N[C@@H](CC(N)=O)C(=O)N[C@@H](CCC(N)=O)C(=O)O"
[out] -1.91%

[in] Try the compound "CSCC[C@H](NC(=O)[C@H](Cc1ccccc1)NC(=O)CNC(=O)CNC(=O)[C@@H](N)Cc1ccc(O)cc1)C(=O)N[C@@H](CCCNC(=N)N)C(=O)N[C@@H](CCCNC(=N)N)C(=O)N[C@H](C(N)=O)C(C)C"
[out] -1.94%

[in] Please do the same for "C[C@H](NC(=O)CNC(=O)[C@@H](NC(=O)[C@H](Cc1ccccc1)NC(=O)CNC(=O)CNC(=O)[C@@H](N)Cc1ccccc1)[C@@H](C)O)C(=O)N[C@@H](CCCNC(=N)N)C(=O)N[C@@H](CCCCN)C(=O)N[C@@H](CO)C(=O)N[C@@H](C)C(=O)N[C@@H](CCCNC(=N)N)C(=O)N[C@@H](CCCCN)C(N)=O" as well.
[out] -3.36%

[in] Can you handle "CC[C@H](C)[C@H](NC(=O)[C@H](CCCNC(=N)N)NC(=O)[C@H](CCCNC(=N)N)NC(=O)[C@H](CC(C)C)NC(=O)[C@H](Cc1ccccc1)NC(=O)CNC(=O)CNC(=O)[C@@H](N)Cc1ccc(O)cc1)C(=O)N[C@@H](CCCNC(=N)N)C(=O)N1CCC[C@H]1C(=O)N[C@@H](CCCCN)C(=O)N[C@@H](CC(C)C)C(=O)N[C@@H](CCCCN)C(=O)O" next?
[out] -2%

[in] Likewise for NC(=O)[C@H](Cc1ccccc1)NC(=O)[C@H](Cc1c[nH]c2ccccc12)NC(=O)[C@@H]1CCCN1C(=O)[C@@H](N)Cc1ccc(O)cc1 [Endomorphin-1] ?
[out] 3.4%

[in] Same thing, different compound: "CC(C)C[C@H](NC(=O)[C@H](Cc1ccccc1)NC(=O)CNC(=O)CNC(=O)[C@@H](N)Cc1ccc(O)cc1)C(=O)N[C@@H](CCCN=C(N)N)C(=O)N[C@@H](CCCN=C(N)N)C(=O)N[C@@H](CCC(N)=O)C(=O)N[C@@H](Cc1ccccc1)C(=O)N[C@@H](CCCCN)C(=O)N[C@H](C(=O)N[C@H](C(=O)N[C@H](C(=O)O)[C@@H](C)O)C(C)C)C(C)C"
[out] -5.6%

[in] Now the same for "CC[C@H](C)[C@H](NC(=O)[C@H](CCCNC(=N)N)NC(=O)[C@H](CCCNC(=N)N)NC(=O)[C@H](CC(C)C)NC(=O)[C@H](Cc1ccccc1)NC(=O)CNC(=O)CNC(=O)[C@@H](N)Cc1ccc(O)cc1)C(=O)N[C@@H](CCCNC(=N)N)C(=O)N1CCC[C@H]1C(=O)N[C@@H](CCCCN)C(=O)N[C@@H](CC(C)C)C(=O)N[C@@H](CCCCN)C(=O)N[C@@H](Cc1c[nH]c2ccccc12)C(=O)N[C@@H](CC(=O)O)C(=O)N[C@@H](CC(N)=O)C(=O)N[C@@H](CCC(N)=O)C(=O)O"
[out] -2.58%

[in] Now try "CC(C)C[C@H](NC(=O)[C@H](CCCCN)NC(=O)[C@H](CCCN=C(N)N)NC(=O)[C@H](C)NC(=O)[C@H](CO)NC(=O)[C@H](CCCCN)NC(=O)[C@H](CCCN=C(N)N)NC(=O)[C@H](C)NC(=O)CNC(=O)[C@@H](NC(=O)[C@H](Cc1ccccc1)NC(=O)CNC(=O)CNC(=O)[C@@H](N)Cc1ccccc1)[C@@H](C)O)C(=O)N[C@@H](C)C(=O)N[C@@H](CC(N)=O)C(=O)N[C@@H](CCC(N)=O)C(=O)O" .
[out] -1%
